Target: Recombinant human His-MEK1 (Homo sapiens)
Construct: purchased ThermoFisher Scientific PV3303
Sequence (Q02750 whole entry): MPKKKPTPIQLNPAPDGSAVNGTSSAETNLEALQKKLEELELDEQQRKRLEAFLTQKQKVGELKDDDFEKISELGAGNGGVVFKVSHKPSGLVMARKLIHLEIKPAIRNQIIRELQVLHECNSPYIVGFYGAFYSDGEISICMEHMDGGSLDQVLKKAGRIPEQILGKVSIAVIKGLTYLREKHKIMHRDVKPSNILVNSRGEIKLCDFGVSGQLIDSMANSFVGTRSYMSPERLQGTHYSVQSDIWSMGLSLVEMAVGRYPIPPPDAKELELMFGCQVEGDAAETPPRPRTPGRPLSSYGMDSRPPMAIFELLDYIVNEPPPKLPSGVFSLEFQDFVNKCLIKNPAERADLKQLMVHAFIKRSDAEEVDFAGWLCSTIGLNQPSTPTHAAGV
Experiment: SPR (Biacore T200) on immobilised His-MEK1
Assay type: binding
Settings: 15° C.; 20 mM HEPES, 150 mM NaCl, 5% DMSO pH 7.4

compound | binding to His-MEK1 (SPR)
CCN1C(=O)c2cc(NC(=O)COC)ccc2Oc2ccccc21 [BT2-MeOA] | no appreciable binding
CCCN1C(=O)c2cc(NC(=O)OCC)ccc2Oc2ccccc21 [BT2-Pr] | no appreciable binding
CCN1C(=O)c2cc(N)ccc2Oc2ccccc21 [BT3] | no appreciable binding

---

Tested on: HMEC-1
Assay: Endothelial repair following in vitro injury (scratch assay)
Assay type: cell-based, human
Conditions: 0.6 μM, 5% FBS, 48 h
property_label: endothelial regrowth after mechanical injury in vitro

compound | reported_result
Nc1ccc(C(=O)c2ccc(F)cc2)cc1 [Compound T7, (4-aminophenyl)(4-fluorophenyl)methanone] | no such effect
CCN1C(=O)c2cc(N)ccc2Oc2ccccc21 [BT3] | no such effect

---

Tested on: BAEC
Test: Endothelial dual chamber migration assay toward VEGF-A165
Format: cell-based, bovine
Conditions: 1 μM; Transwell; 10% FBS and 50 ng/ml VEGF-A165 in lower chamber; 24 h
Procedure: Endothelial dual chamber migration assay. BAEC (6×10^3 cells/well) suspended in DMEM supplemented with 10% FBS were seeded into the upper chamber of 24-well plates fitted with Millicell cell culture inserts (cat. PI8P01250, Millipore). After 48 h, the medium was changed to DMEM supplemented with 0.01% FBS and the cells were incubated for 48 h. Compounds prepared in DMEM containing 0.01% FBS were added to the upper chamber. […]

compound | migration of BAEC toward VEGF-A165
CCOC(=O)Nc1ccc2c(c1)C(=O)N(CC)c1ccccc1O2 [BT2] | inhibited migration
COCCOC(=O)NC(=O)Nc1ccc(C(=NO)c2ccc(Cl)cc2)cc1 [Compound T4] | inhibited migration
COC(=O)Nc1nc2ccc(C(=O)c3ccc(F)cc3)cc2[nH]1 [Compound T6, Flubendazole, reference compound] | inhibited migration

---

Target: Recombinant human His-MEK2 (Homo sapiens, UniProt P36507)
Construct: purchased ThermoFisher Scientific PV3615
Sequence (P36507 whole entry): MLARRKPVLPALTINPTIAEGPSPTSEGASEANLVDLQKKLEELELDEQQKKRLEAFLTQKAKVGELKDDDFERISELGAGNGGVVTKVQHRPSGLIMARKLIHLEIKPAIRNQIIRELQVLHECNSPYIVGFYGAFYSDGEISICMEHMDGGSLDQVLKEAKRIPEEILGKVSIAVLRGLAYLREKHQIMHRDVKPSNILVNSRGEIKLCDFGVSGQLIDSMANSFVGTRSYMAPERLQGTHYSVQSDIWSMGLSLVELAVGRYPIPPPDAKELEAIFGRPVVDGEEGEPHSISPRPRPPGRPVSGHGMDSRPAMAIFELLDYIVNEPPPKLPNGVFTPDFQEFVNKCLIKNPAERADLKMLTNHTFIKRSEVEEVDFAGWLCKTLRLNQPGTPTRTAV
Assay: SPR (Biacore T200) on immobilised His-MEK2
Format: binding
Conditions: 15° C.; 20 mM HEPES, 150 mM NaCl, 5% DMSO pH 7.4
Procedure: SPR. SPR was performed on a Biacore T200. The active and reference flow cells of a Xantec NIHMC Ni sensor chip were conditioned with 0.5M NaEDTA followed by 5 mM NiCl2 in immobilisation buffer (20 mM HEPES, 150 mM NaCl, pH 7.4). […] Data were analysed using the Biacore T200 Evaluation software. Prior to SPR, limits of compound solubility were determined using ^1H 1D NMR.

structure_notation | binding to His-MEK2 (SPR)
CCCN1C(=O)c2cc(NC(=O)OCC)ccc2Oc2ccccc21 | no appreciable binding
CCN1C(=O)c2cc(N)ccc2Oc2ccccc21 | no appreciable binding
CCN1C(=O)c2cc(NC(=O)COC)ccc2Oc2ccccc21 | no appreciable binding

---

Test: GLP ocular pharmacokinetics study, single intravitreal injection
Type: in vivo
Settings: rabbit, eye, other: intravitreal injection; rabbits; single intravitreal injection 10 μg/50 μl; read-out: ocular half-life (t1/2) (converted)
property_label: half-life (h)
Number only, in h; omit the unit.

Name the recorded half-life for CCOC(=O)Nc1ccc2c(c1)C(=O)N(CC)c1ccccc1O2 [BT2] .
79.2
